Just for reference, patent US10344024B2 is where these values come from.

target: GST-tagged ROR gamma ligand binding domain (LBD) (Homo sapiens); construct: purchased Invitrogen; experiment: TR-FRET assay for ROR gamma (LanthaScreen co-activator peptide recruitment); type: biochemical; settings: compound concentration 10 μM; TR-FRET ratio 520/495, percent of control
Sequence (P51449 269-508 limits assumed): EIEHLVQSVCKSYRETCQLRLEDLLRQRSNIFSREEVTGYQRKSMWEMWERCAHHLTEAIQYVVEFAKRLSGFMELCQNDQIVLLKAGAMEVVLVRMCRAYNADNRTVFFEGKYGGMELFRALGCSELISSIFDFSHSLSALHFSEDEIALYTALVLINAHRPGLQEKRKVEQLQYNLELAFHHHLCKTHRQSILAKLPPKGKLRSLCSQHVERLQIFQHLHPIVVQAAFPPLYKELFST
readout_kind: inhibition at 10 µM (%)
Respond with the bare value in %.

Look up and state reported inhibition at 10 µM for `CCC(F)(F)c1ccc(CC(=O)Nc2ccc(-c3nccnc3N[C@@H](C)c3ccc(F)cc3C)cc2)cc1`
92.4

Assign inhibition at 10 µM to the following record: `CCC(F)(F)c1ccc(CC(=O)Nc2ccc(-c3nccnc3O[C@@H](C)c3ccccc3)cc2)cc1`
86.3

Supply recorded inhibition at 10 µM for CC(O)C(F)(F)c1ccc(CC(=O)Nc2ccc(-c3nccnc3OCc3ccccc3)cc2)cc1 (stereo not drawn) here.
93.9

Supply inhibition at 10 µM value. Item: `CCC(F)(F)c1ccc(CC(=O)Nc2ccc(-c3nccnc3-c3ccc(C)cc3F)cc2)cc1`
84.1

Give the measured inhibition at 10 µM for `CCC(F)(F)c1ccc(CC(=O)Nc2ccc(-c3nccnc3N3CCN(C4COC4)CC3)cc2)cc1`
91.9

Item `CCC(F)(F)c1ccc(CC(=O)Nc2ccc(-c3nccnc3-c3ccc(C)cc3C)cc2)cc1` : provide inhibition at 10 µM
82.3

Give recorded inhibition at 10 µM. `CCC(F)(F)c1ccc(CC(=O)Nc2ccc(-c3nccnc3-c3ccc(=O)n(C)c3)cc2)cc1`
59.7

Give reported inhibition at 10 µM value for `CCC(F)(F)c1ccc(CC(=O)Nc2ccc(-c3nccnc3N3CCN(C)CC3)cc2)cc1`
65.1

Please give measured inhibition at 10 µM of the following entry: Cc1noc(C)c1CCOc1nccnc1-c1ccc(NC(=O)Cc2ccc(C(F)(F)C(C)O)cc2)cc1 (stereo not drawn)
93.9

Supply recorded inhibition at 10 µM for `CCC(F)(F)c1ccc(CC(=O)Nc2ccc(-c3cnccc3-c3ccc(Cl)cc3)cc2)cc1` here.
73.3

Identify the reported inhibition at 10 µM for the following entry. CC(O)C(F)(F)c1ccc(CC(=O)Nc2ccc(-c3nccnc3N3CCOCC3)cc2)cc1 (stereo not drawn)
48.8

Fill in inhibition at 10 µM for record Cc1ccc(-c2nccnc2-c2ccc(NC(=O)Cc3ccc(C(F)(F)C(C)O)cc3)cc2)c(C)c1 (stereo not drawn)
81

In one line, give reported inhibition at 10 µM of the entry `CCC(F)(F)c1ccc(CC(=O)Nc2ccc(-c3nccnc3N(C)c3ccc(Cl)cc3)cc2)cc1` .
64.6

Give me measured inhibition at 10 µM, please, for this compound: `CCC(F)(F)c1ccc(CC(=O)Nc2ccc(-c3nccnc3N(C)Cc3ccccc3)cc2)cc1`
85.8

Assign inhibition at 10 µM to the following record: `CCC(F)(F)c1ccc(CC(=O)Nc2ccc(-c3nccnc3-c3ccccc3)cc2)cc1`
80.6

State its inhibition at 10 µM for this compound: `CCC(F)(F)c1ccc(CC(=O)Nc2ccc(-n3nc(C(F)(F)F)cc3-c3ccccc3Cl)cc2)cc1`
79.8

Recall and state the measured inhibition at 10 µM for `CCC(F)(F)c1ccc(CC(=O)Nc2ccc(-c3nccnc3N[C@@H](C)c3ccccc3Cl)cc2)cc1` .
90.2

Provide measured inhibition at 10 µM value, entry: `CCc1ccccc1-c1nccnc1-c1ccc(NC(=O)Cc2ccc(C(F)(F)[C@H](C)O)cc2)cc1`
84
